system: IGROV1 ovarian; test: NCI tumour cell line growth inhibition, 48 h
Catalogue of compounds with associated TGI

{"Compound": "Cc1oc2c(C)c3oc(=O)cc(C)c3cc2c1CNC(=O)[C@@H]1OCCOCCOCCOCCOCCOC1C(=O)O (some centres undefined)", "Test target": "IGROV1 ovarian", "TGI": "> 100 µM"}
{"Compound": "O=S(=O)(N/N=C/c1ccc(Cl)c(Cl)c1)c1ccccc1", "Test target": "IGROV1 ovarian", "TGI": "> 100 µM"}
{"Compound": "O=C(NCCCCN(CCCNC(=O)C(F)(F)F)Cc1ccc2ccccc2c1)C(F)(F)F", "Test target": "IGROV1 ovarian", "TGI": "32.9 µM"}
{"Compound": "Nc1cc(C(=O)O)[nH]c(=O)n1", "Test target": "IGROV1 ovarian", "TGI": "> 100 µM"}
{"Compound": "CCN(CC)CCCn1cnc2ncccc2c1=O", "Test target": "IGROV1 ovarian", "TGI": "> 100 µM"}
{"Compound": "Cc1cc(NS(=O)(=O)c2ccc(NC(=O)c3ccc4[nH]c5ccccc5c(=O)c4c3)cc2)no1", "Test target": "IGROV1 ovarian", "TGI": "> 100 µM"}
{"Compound": "CC(C)c1c(C(=O)Nc2ccccc2)c(-c2ccccc2)c(-c2ccc(F)cc2)n1CC[C@@H]1CC=CC(=O)O1", "Test target": "IGROV1 ovarian", "TGI": "5.41 µM"}
{"Compound": "Clc1ccc(/C=C/c2cc(N3CCOCC3)c3cc(Cl)c(Cl)cc3n2)cc1", "Test target": "IGROV1 ovarian", "TGI": "> 100 µM"}
{"Compound": "C=C1[C@H](OC(=O)C(C)C)[C@]23CC4(O)[C@@H]5[C@@]6(C)CCC[C@]57C([C@@H]2C[C@@]1(O)[C@H](O)[C@@H]73)N4C6", "Test target": "IGROV1 ovarian", "TGI": "> 100 µM"}

---

test system: HL-60(TB) leukemia; assay: NCI tumour cell line growth inhibition, 48 h
Experimental readout: GI50

{"Compound": "CC/C(=C(/c1ccc(OCCN(C)C)cc1)c1ccc(OC(=O)CCC(=O)c2c(C)[nH]c(/C=C3\\N=C(c4ccc[nH]4)C=C3OC)c2C)cc1)c1ccccc1", "Experimental readout": "GI50", "Recorded value": "3130 nM"}
{"Compound": "c1ccc(C2CC(c3cccc(Nc4ccncc4)c3)=NN2c2ccccc2)cc1 (stereo not given)", "Experimental readout": "GI50", "Recorded value": "1650 nM"}
{"Compound": "CCOc1ccccc1NC(=O)c1cc2ccccc2cc1O", "Experimental readout": "GI50", "Recorded value": "2310 nM"}
{"Compound": "CCCCOc1ccc(NC(=O)n2nc(N)c3ccccc32)cc1", "Experimental readout": "GI50", "Recorded value": "813 nM"}
{"Compound": "C/C=C/C/C=C/CCC(=O)[C@H]1O[C@H]1C(N)=O", "Experimental readout": "GI50", "Recorded value": "5190 nM"}

---

system: SF-268 CNS; experiment: NCI tumour cell line growth inhibition, 48 h

{"Compound": "CC(=O)N1N=C(c2ccc(Nc3nc(Nc4ccc(Cl)cc4)nc(Nc4ccc(Cl)cc4)n3)cc2)CC1c1ccc([N+](=O)[O-])cc1 (centres undefined)", "Test target": "SF-268 CNS", "TGI": "> 100 µM"}
{"Compound": "COC(c1cccc(C(O)(C(F)(F)F)C(F)(F)F)c1)(C(F)(F)F)C(F)(F)F", "Test target": "SF-268 CNS", "TGI": "38.5 µM"}
{"Compound": "C=C(C)C1Cc2c(cc(OC)c3c(=O)c4cccc(O)c4oc23)O1 (centres undefined)", "Test target": "SF-268 CNS", "TGI": "43.4 µM"}
{"Compound": "Cn1ccc(C(=O)N2CCSC2=S)c(OCc2ccccc2)c1=O", "Test target": "SF-268 CNS", "TGI": "> 100 µM"}
{"Compound": "CCOc1ccc(Nc2nc3c(s2)C(=O)c2ccccc2C3=O)cc1", "Test target": "SF-268 CNS", "TGI": "16.7 µM"}
{"Compound": "c1ccc2c(c1)Nc1ccccc1[P+]21c2ccccc2Nc2ccccc21", "Test target": "SF-268 CNS", "TGI": "6.63 µM"}
{"Compound": "CC(=O)NNc1nc(C)c(C(/C=C/c2ccc([N+](=O)[O-])cc2)=N/N)s1", "Test target": "SF-268 CNS", "TGI": "> 100 µM"}
{"Compound": "CC(C)(C)OC(=O)CC(NC(=O)OC(C)(C)C)C(=O)N[C@@H]1CCCC[C@H]1C(=O)OCc1ccccc1 (some centres undefined)", "Test target": "SF-268 CNS", "TGI": "> 100 µM"}
{"Compound": "O=C1CS(=O)(=O)C(c2cccc(Oc3ccccc3)c2)N1c1cccc(Cl)c1 (centres undefined)", "Test target": "SF-268 CNS", "TGI": "76.7 µM"}
